Measured SK-Br-3 pHER3 IC50, listed per entry.
Molecular target: Human HER3, endogenous, on human cancer cell lines (SK-Br-3, MCF7, BT-474) (human, UniProt P21860 20-1342)
Sequence (P21860 20-1342): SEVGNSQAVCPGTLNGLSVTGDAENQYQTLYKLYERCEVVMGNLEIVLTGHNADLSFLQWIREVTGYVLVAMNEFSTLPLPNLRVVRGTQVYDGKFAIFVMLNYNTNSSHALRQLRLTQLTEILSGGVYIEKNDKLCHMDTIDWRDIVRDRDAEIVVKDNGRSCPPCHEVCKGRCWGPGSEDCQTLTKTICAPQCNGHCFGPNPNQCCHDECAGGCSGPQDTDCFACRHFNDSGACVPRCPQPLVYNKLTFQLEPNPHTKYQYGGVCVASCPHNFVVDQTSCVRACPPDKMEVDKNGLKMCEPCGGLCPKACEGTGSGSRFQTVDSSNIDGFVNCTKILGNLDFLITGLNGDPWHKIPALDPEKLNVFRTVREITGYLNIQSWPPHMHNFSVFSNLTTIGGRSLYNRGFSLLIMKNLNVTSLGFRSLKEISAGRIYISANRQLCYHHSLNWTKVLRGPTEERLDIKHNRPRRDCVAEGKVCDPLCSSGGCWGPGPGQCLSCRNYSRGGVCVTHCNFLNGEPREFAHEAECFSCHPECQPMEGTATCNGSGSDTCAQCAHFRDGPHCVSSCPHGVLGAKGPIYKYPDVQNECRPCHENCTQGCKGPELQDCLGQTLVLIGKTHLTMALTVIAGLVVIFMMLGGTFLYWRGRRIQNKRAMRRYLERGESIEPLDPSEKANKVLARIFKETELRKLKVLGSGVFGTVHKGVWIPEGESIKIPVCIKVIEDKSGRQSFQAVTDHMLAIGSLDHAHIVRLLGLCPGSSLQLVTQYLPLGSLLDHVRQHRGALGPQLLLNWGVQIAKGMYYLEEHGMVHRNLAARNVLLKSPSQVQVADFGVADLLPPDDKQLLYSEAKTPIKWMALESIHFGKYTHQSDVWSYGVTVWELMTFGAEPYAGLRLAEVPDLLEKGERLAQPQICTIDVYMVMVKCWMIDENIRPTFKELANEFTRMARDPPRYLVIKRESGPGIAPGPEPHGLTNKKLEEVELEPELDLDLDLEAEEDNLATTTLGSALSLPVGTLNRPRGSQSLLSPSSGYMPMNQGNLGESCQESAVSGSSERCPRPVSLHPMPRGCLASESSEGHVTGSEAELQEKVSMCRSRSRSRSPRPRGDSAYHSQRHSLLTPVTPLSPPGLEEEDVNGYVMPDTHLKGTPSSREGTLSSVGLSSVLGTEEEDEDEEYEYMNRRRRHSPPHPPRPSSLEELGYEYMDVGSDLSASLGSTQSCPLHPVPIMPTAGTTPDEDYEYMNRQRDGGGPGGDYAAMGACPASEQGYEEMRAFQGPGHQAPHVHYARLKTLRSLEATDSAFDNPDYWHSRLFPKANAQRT
Experiment: cell-based or functional assay
readout_label: SK-Br-3 pHER3 IC50 (pM)

binder	recorded_number
MOR13870 (antibody, human IgG1, kappa, V domains shown, tested as IgG) VH: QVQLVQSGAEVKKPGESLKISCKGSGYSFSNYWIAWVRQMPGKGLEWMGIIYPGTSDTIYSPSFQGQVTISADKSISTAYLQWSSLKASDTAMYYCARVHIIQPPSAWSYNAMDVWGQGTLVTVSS VL: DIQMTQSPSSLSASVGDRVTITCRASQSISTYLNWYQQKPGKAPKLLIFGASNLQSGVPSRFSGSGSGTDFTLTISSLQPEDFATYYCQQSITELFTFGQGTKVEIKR	110
MOR14535 (antibody, human IgG1, kappa, V domains shown, tested as IgG) VH: EVQLVQSGAEVKKPGESLKISCKGSGYSFTTTWVAWVRQMPGKGLEWMGIIYPGLSDTIYSPSFQGQVTISADKSISTAYLQWSSLKASDTAMYYCARVHIIQPPSAWSYNAMDVWGQGTLVTVSS VL: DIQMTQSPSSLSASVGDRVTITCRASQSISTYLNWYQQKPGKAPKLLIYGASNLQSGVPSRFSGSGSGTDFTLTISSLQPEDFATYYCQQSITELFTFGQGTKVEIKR	231
MOR13762 (antibody, human IgG1, kappa, V domains shown, tested as IgG) VH: QVQLVQSGAEVKKPGESLKISCKGSGYSFTNTWVAWVRQMPGKGLEWMGIIYPGQSDTIYSPSFQGQVTISADKSISTAYLQWSSLKASDTAMYYCARVHIIQPPSAWSYNAMDVWGQGTLVTVSS VL: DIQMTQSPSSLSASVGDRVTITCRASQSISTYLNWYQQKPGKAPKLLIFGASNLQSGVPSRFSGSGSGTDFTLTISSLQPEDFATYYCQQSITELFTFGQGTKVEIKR	90
